Target: hKv7.2/7.3 (Homo sapiens, UniProt O43525+O43526)
Construct: host or cells: HEK cells, tetracycline-inducible expression
Test: Kv7.2/7.3 Activation Assay, QPatch planar patch-clamp single concentration screen
Format: cell-based
Details: increase in current over baseline, Kv7.2/Kv7.3 co-expressing HEK cells, compound concentration 3 μM, steady-state current at end of 2 s pulse to −30 mV
PROPERTY: QPatch Kv7.2/7.3 Activity

CC(C)(O)CC(=O)Nc1nn2ccc(C(F)(F)F)cc2c1-c1cc(F)cc(F)c1 ... + (2.0-3.99 (+))
C[C@](O)(CC(=O)Nc1nn2ccc(Cl)cc2c1C1CCC1)c1ccccc1 ... + (2.0-3.99 (+))
CC(C)(O)CC(=O)Nc1nn2ccc(C(F)(F)F)cc2c1-c1ccc(C(F)(F)F)cc1 ... + (2.0-3.99 (+))
CC(C)(O)CC(=O)Nc1nn2ccc(C(F)(F)F)cc2c1-c1cccc(Cl)c1 ... + (2.0-3.99 (+))

## Input Lab note: need QPatch Kv7.2/7.3 Activity for C[C@](O)(CC(=O)Nc1nn2c(Br)cccc2c1C1CCC1)c1ccccc1 on hKv7.2/7.3 (Homo sapiens, UniProt O43525+O43526), anyone have it?
## Output + (2.0-3.99 (+))

## Input Please tell me: QPatch Kv7.2/7.3 Activity of CC(C)(C)CC(=O)Nc1nn2ccccc2c1C1CCC1 , system hKv7.2/7.3 (Homo sapiens, UniProt O43525+O43526)?
## Output + (2.0-3.99 (+))

## Input API: value(readout=QPatch Kv7.2/7.3 Activity, system=hKv7.2/7.3 (Homo sapiens, UniProt O43525+O43526)) for record C[C@@](O)(CC(=O)Nc1nn2ccc(C(F)(F)F)cc2c1C1CCC1)C1CC1
## Output + (2.0-3.99 (+))

Recorded values, source patent US20250066351A1.
